Consider the following compounds; for each one, report its pest or weed control at 62.5 g/ha.
# Test system: velvetleaf (Abutilon theophrasti)
# protocol.details: Test G Pre-Emergence Protocol
# Format: in vivo
# test.settings: Abutilon theophrasti, pre-emergence, 312 h, 62.5 g ai/ha, evaluated after 13 days, 100=total damage to plant, 0=no damage to plant, read-out: Velvetleaf damage rating
Give bare numbers, in %.

{"compound": "CC1OC(=O)c2c(NC(=O)[C@H]3C(=O)N(C)C[C@@H]3c3ccc(C(F)(F)F)cc3)cccc21 (mixture of isomers)", "unit.abbreviation": "%", "pest or weed control at 62.5 g/ha": 0}
{"compound": "CSc1ccncc1NC(=O)[C@H]1C(=O)N(C)C[C@@H]1c1cccc(C(F)(F)F)c1 (racemic)", "unit.abbreviation": "%", "pest or weed control at 62.5 g/ha": 0}
{"compound": "CN1C[C@H](c2ccc(C(F)(F)F)cc2)[C@@H](C(=O)Nc2cnccc2S(C)(=O)=O)C1=O (racemic)", "unit.abbreviation": "%", "pest or weed control at 62.5 g/ha": 0}
{"compound": "CN1C[C@@H](c2cccc(I)c2)[C@H](C(=O)Nc2cccc(F)c2F)C1=O (racemic)", "unit.abbreviation": "%", "pest or weed control at 62.5 g/ha": 0}

Give me pest or weed control at 62.5 g/ha for each of these compounds, listed below.
1. CN1C[C@@H](c2cccc(Oc3ccc(F)cc3)c2)[C@H](C(=O)Nc2cccc(F)n2)C1=O (racemic)
2. CN1C[C@@H](c2ccc(C(F)(F)F)cc2)[C@H](C(=O)Nc2ccc(F)nn2)C1=O (racemic)
3. Cc1cc(C2CN(C)C(=O)C2C(=O)Nc2cccc(F)c2F)cc(Cl)c1F (centres unmarked)
4. COc1cc(C)cc([C@@H]2CN(C)C(=O)[C@H]2C(=O)Nc2cccc(F)c2C)c1 (racemic)
5. COc1cc(F)cc(C2CN(C)C(=O)C2C(=O)Nc2cccc(F)c2F)c1 (centres unmarked)
6. CN1CCCC(NC(=O)[C@H]2C(=O)N(C)C[C@@H]2c2ccc(C(F)(F)F)cc2)C1=O (mixture of isomers)
7. COc1cc(C2CN(C)C(=O)C2C(=O)Nc2cccc(F)c2F)cc(C(F)(F)F)c1F (centres unmarked)
8. CCCOc1cc(C2CN(C)C(=O)C2C(=O)Nc2cccc(F)c2F)cc(C(F)(F)F)c1 (centres unmarked)

1: 0; 2: 0; 3: 0; 4: 10; 5: 0; 6: 0; 7: 0; 8: 0

###

# Tested on: blackgrass (Alopecurus myosuroides)
# protocol.details: Test A postemergence
# Format: in vivo
# test.settings: 500 g ai/ha, postemergence; visual injury, 0 to 100 scale (0 no effect, 100 complete control), approx. 10 d
I'd appreciate it if you could supply Plant response rating, Blackgrass values for the items below.
Numbers only.

Example entries begin here.
{"compound": "Cc1ccc(C2CN(C)C(=O)C2C(=O)Nc2ccccc2S(C)(=O)=O)cc1 (stereo not shown)", "Plant response rating, Blackgrass": 70}
{"compound": "CC(C)Oc1cccc(C2CN(C)C(=O)C2C(=O)Nc2ccccc2S(C)(=O)=O)c1 (stereo not shown)", "Plant response rating, Blackgrass": 70}
{"compound": "CN1CC(c2ccc(F)c(F)c2)C(C(=O)Nc2ccccc2S(C)(=O)=O)C1=O (stereo not shown)", "Plant response rating, Blackgrass": 50}

Let's switch to this compound now.
Lab note: need Plant response rating, Blackgrass with blackgrass (Alopecurus myosuroides) for entry Cc1ccc(C2CN(C)C(=O)C2C(=O)Nc2ccc(F)cc2F)cc1 (stereo not shown) , please look it up.
60

Reference source: patent US12077503B2
